All figures here come from patent US20230340114A1.

experimental system: T1, flag-tagged cynomolgus monkey LILRB4 expressed on CHO-K1 cells (cynomolgus monkey)
T1 construct: whole, on cells; also called cyno LILRB4
method notes: FACS, CHO-stable cells expressing cyno LILRB4
Please respond with reported pEC50 for every item in the list.
By convention, pEC50 is the negative base-10 log of a molar concentration.

*Q* // returns reported pEC50 for input H7K3 variant 5, K3m1 (N/V) (antibody, V domains shown) VH: EVQLVESGGGLVQPGGSLRLSCAASGFSLSSSYWISWVRQAPGKGLEWIGSIDSGSVGITYYATWVKGRFTISRDNSKNTLYLQMNSLRAEDTAVYYCARHGDNWALDLWGQGTLVTVSS VL: DIQMTQSPSTLSASVGDRVTITCRASQSIVSWLAWYQQKPGKAPKLLIYKASTLASGVPSRFSGSGSGTEFTLTISSLQPDDFATYYCQHGYIRGDLDNVFGGGTKVEIK
*A* 8.91

*Q* // returns reported pEC50 for input H7K3 variant 12, K3m8 (S/V) (antibody, V domains shown) VH: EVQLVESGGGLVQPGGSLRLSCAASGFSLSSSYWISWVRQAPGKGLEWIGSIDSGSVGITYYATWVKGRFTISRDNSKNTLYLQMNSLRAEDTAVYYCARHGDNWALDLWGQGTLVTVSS VL: DIQMTQSPSTLSASVGDRVTITCRASQSINVWLAWYQQKPGKAPKLLIYKASTLASGVPSRFSGSGSGTEFTLTISSLQPDDFATYYCQHGYIRGDLDNVFGGGTKVEIK
*A* 9.03

*Q* // returns reported pEC50 for input H7K3 variant 11, K3m7 (S/Q) (antibody, V domains shown) VH: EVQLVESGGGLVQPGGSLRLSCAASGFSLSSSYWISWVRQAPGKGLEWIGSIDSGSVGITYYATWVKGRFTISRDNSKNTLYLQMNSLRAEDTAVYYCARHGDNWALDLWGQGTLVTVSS VL: DIQMTQSPSTLSASVGDRVTITCRASQSINQWLAWYQQKPGKAPKLLIYKASTLASGVPSRFSGSGSGTEFTLTISSLQPDDFATYYCQHGYIRGDLDNVFGGGTKVEIK
*A* 9.01
